SYSTEM TESTED: Tubulin beta-4B chain (Homo sapiens, UniProt P68371)
Sequence (P68371 whole entry): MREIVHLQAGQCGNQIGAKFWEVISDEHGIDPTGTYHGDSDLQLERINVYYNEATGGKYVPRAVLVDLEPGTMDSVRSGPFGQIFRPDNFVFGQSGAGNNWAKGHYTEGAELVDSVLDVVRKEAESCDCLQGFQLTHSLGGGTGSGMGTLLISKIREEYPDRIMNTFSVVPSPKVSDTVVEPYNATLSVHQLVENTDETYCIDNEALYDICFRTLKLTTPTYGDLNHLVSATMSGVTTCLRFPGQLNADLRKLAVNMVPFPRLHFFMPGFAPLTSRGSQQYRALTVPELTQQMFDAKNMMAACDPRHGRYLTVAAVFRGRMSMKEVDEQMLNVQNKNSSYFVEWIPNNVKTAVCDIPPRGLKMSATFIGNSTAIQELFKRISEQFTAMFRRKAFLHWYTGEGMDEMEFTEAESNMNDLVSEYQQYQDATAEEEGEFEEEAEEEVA
ASSAY PROCEDURE: Inhibitory activity against tubulin using tubulin polymerization assay
PARAMETER: IC50

## Task Identify measured IC50 corresponding to COc1cc(C2C(C#N)=C(N)Oc3cc(N)ccc32)cc(Br)c1OC (stereo unspecified)
## Result < 500 nM

----------
For each record, write down the corresponding log10(EC50).
System: T47D
ASSAY PROCEDURE: Effective concentration against human breast cancer T47D cell line apoptosis inducing activity was measured by using cell and caspase-based HTS assay
Format: functional
Plainly stated, the numbers are log10 of EC50 given in nM.

## Task Identify measured log10(EC50) corresponding to N#CC1=C(N)Oc2c(ccc(N)c2N)C1c1cccc([N+](=O)[O-])c1 (configuration not stated)
## Result 2.59

## Task Identify measured log10(EC50) corresponding to CCCCNc1ccc2c(c1)OC(N)=C(C#N)C2c1cccc(OC)c1 (configuration not stated)
## Result 2.04

## Task Identify measured log10(EC50) corresponding to CCNc1ccc2c(c1)OC(N)=C(C#N)C2c1cc(Br)c(OC)c(OC)c1 (configuration not stated)
## Result 1.15

## Task Identify measured log10(EC50) corresponding to N#CC1=C(N)Oc2c(ccc(N)c2N)C1c1cccc(Br)c1 (configuration not stated)
## Result 2.18

## Task Identify measured log10(EC50) corresponding to COc1cc(C2C(C#N)=C(N)Oc3c2ccc(C)c3C)cc(Br)c1OC (configuration not stated)
## Result 1.62

## Task Identify measured log10(EC50) corresponding to COc1cc(C2C(C#N)=C(N)Oc3cc(N)ccc32)cc(Br)c1OC (configuration not stated)
## Result 1.52

## Task Identify measured log10(EC50) corresponding to COc1cc(C2C(C#N)=C(N)Oc3c2ccc(N)c3N)cc(Cl)c1OC (configuration not stated)
## Result 1.38

## Task Identify measured log10(EC50) corresponding to CCCCNc1ccc2c(c1)OC(N)=C(C#N)C2c1cccc([N+](=O)[O-])c1 (configuration not stated)
## Result 2.04

## Task Identify measured log10(EC50) corresponding to COc1ccc2c(c1)OC(N)=C(C#N)C2c1cccc(Br)c1 (configuration not stated)
## Result 1.72

## Task Identify measured log10(EC50) corresponding to CCCCNc1ccc2c(c1)OC(N)=C(C#N)C2c1cc(OC)c(OC)c(OC)c1 (configuration not stated)
## Result 1.69

## Task Identify measured log10(EC50) corresponding to COc1cc(C2C(C#N)=C(N)Oc3cc(Br)ccc32)cc(Br)c1OC (configuration not stated)
## Result 2.15

## Task Identify measured log10(EC50) corresponding to COc1cc(C2C(C#N)=C(N)Oc3c2ccc(N)c3C)cc(Br)c1OC (configuration not stated)
## Result 1.41

----------
System: T47D
ASSAY PROCEDURE: Effective concentration against human breast cancer T47D cell line apoptosis inducing activity was measured by using cell and caspase-based HTS assay
Type: functional
PARAMETER: pEC50
Just so you know, pEC50 here is -log10 of the concentration in molar units; reply with that number alone.

## Task Identify measured pEC50 corresponding to COc1cc(C2C(C#N)=C(N)Oc3cc(Cl)ccc32)cc(Br)c1OC (stereo not drawn)
## Result 6.80

## Task Identify measured pEC50 corresponding to COc1cc(C2C(C#N)=C(N)Oc3c2ccc(N)c3N)cc(Br)c1O (stereo not drawn)
## Result 7.64

## Task Identify measured pEC50 corresponding to COc1cc(C2C(C#N)=C(N)Oc3c2ccc(N)c3N)cc(I)c1OC (stereo not drawn)
## Result 7.31

## Task Identify measured pEC50 corresponding to COc1cc(C2C(C#N)=C(N)Oc3c2ccc(N)c3C)cc2c1OCO2 (stereo not drawn)
## Result 6.51

## Task Identify measured pEC50 corresponding to COc1cc(C2C(C#N)=C(N)Oc3c2ccc(O)c3N)cc(Br)c1OC (stereo not drawn)
## Result 7.21

## Task Identify measured pEC50 corresponding to CCCCNc1ccc2c(c1)OC(N)=C(C#N)C2c1cc(OC)cc(OC)c1 (stereo not drawn)
## Result 7.26

## Task Identify measured pEC50 corresponding to CCCCNc1ccc2c(c1)OC(N)=C(C#N)C2c1cccc(Cl)c1 (stereo not drawn)
## Result 6.92

## Task Identify measured pEC50 corresponding to COc1ccc2c(c1)OC(N)=C(C#N)C2c1ccccc1 (stereo not drawn)
## Result 6.44

## Task Identify measured pEC50 corresponding to COc1ccc2c(c1)OC(N)=C(C#N)C2c1cccc([N+](=O)[O-])c1 (stereo not drawn)
## Result 7.05

## Task Identify measured pEC50 corresponding to COc1ccc2c(c1)OC(N)=C(C#N)C2c1cc(Br)c(OC)c(OC)c1 (stereo not drawn)
## Result 7.77

## Task Identify measured pEC50 corresponding to N#CC1=C(N)Oc2c(ccc(N)c2N)C1c1cccc(C#N)c1 (stereo not drawn)
## Result 6.41

## Task Identify measured pEC50 corresponding to COc1cccc(C2C(C#N)=C(N)Oc3cc(OC)ccc32)c1 (stereo not drawn)
## Result 7.28

## Task Identify measured pEC50 corresponding to COc1cc(C2C(C#N)=C(N)Oc3c2ccc(N)c3N)cc(Br)c1OC (stereo not drawn)
## Result 7.47

## Task Identify measured pEC50 corresponding to COc1cc(C2C(C#N)=C(N)Oc3cc(O)ccc32)cc(Br)c1OC (stereo not drawn)
## Result 6.89

## Task Identify measured pEC50 corresponding to COc1cncc(C2C(C#N)=C(N)Oc3cc(OC)ccc32)c1 (stereo not drawn)
## Result 7.33

## Task Identify measured pEC50 corresponding to COc1cc(OC)cc(C2C(C#N)=C(N)Oc3cc(OC)ccc32)c1 (stereo not drawn)
## Result 7.82

## Task Identify measured pEC50 corresponding to COc1ccc2c(c1)OC(N)=C(C#N)C2c1cc(OC)c(OC)c(OC)c1 (stereo not drawn)
## Result 7.59

## Task Identify measured pEC50 corresponding to COc1ccc2c(c1)OC(N)=C(C#N)C2c1cccnc1 (stereo not drawn)
## Result 6.77

## Task Identify measured pEC50 corresponding to COc1cc(OC)cc(C2C(C#N)=C(N)Oc3c2ccc(N)c3N)c1 (stereo not drawn)
## Result 7.04

## Task Identify measured pEC50 corresponding to COc1cc(C2C(C#N)=C(N)Oc3c2ccc(O)c3O)cc(Br)c1OC (stereo not drawn)
## Result 5.77

## Task Identify measured pEC50 corresponding to COc1cc(C2C(C#N)=C(N)Oc3cc4c(cc32)OCO4)cc2c1OCO2 (stereo not drawn)
## Result 6.68

## Task Identify measured pEC50 corresponding to COc1ccc2c(c1)OC(N)=C(C#N)C2c1cccc(Cl)c1 (stereo not drawn)
## Result 7.10

## Task Identify measured pEC50 corresponding to CCOc1ccc2c(c1)OC(N)=C(C#N)C2c1cc(Br)c(OC)c(OC)c1 (stereo not drawn)
## Result 7.19
